Source: patent US20040229791A1

molecular target: TGF-β2-α2M* complex (Homo sapiens); construct: was purified from pooled citrate-treate human plasma; assay: Inhibition of 125I-TGF-β2 and α2M* complex formation (5% non-denaturing PAGE); conditions: 50% inhibition; read-out: concentration that inhibited 50% of the complex formation of α2M* and 125I-TGF-β2
attribute_measured: IC50 (µM)
The response must be a number in µM with no trailing unit.

Which IC50 value belongs to CCCCC/C=C\C/C=C\C/C=C\C/C=C\CCCC(=O)O ?
50

----------
Target: TGF-β1-α2M* complex (Homo sapiens)
Construct: was purified from pooled citrate-treate human plasma
Sequence (P01023 24-1474, one chain of several): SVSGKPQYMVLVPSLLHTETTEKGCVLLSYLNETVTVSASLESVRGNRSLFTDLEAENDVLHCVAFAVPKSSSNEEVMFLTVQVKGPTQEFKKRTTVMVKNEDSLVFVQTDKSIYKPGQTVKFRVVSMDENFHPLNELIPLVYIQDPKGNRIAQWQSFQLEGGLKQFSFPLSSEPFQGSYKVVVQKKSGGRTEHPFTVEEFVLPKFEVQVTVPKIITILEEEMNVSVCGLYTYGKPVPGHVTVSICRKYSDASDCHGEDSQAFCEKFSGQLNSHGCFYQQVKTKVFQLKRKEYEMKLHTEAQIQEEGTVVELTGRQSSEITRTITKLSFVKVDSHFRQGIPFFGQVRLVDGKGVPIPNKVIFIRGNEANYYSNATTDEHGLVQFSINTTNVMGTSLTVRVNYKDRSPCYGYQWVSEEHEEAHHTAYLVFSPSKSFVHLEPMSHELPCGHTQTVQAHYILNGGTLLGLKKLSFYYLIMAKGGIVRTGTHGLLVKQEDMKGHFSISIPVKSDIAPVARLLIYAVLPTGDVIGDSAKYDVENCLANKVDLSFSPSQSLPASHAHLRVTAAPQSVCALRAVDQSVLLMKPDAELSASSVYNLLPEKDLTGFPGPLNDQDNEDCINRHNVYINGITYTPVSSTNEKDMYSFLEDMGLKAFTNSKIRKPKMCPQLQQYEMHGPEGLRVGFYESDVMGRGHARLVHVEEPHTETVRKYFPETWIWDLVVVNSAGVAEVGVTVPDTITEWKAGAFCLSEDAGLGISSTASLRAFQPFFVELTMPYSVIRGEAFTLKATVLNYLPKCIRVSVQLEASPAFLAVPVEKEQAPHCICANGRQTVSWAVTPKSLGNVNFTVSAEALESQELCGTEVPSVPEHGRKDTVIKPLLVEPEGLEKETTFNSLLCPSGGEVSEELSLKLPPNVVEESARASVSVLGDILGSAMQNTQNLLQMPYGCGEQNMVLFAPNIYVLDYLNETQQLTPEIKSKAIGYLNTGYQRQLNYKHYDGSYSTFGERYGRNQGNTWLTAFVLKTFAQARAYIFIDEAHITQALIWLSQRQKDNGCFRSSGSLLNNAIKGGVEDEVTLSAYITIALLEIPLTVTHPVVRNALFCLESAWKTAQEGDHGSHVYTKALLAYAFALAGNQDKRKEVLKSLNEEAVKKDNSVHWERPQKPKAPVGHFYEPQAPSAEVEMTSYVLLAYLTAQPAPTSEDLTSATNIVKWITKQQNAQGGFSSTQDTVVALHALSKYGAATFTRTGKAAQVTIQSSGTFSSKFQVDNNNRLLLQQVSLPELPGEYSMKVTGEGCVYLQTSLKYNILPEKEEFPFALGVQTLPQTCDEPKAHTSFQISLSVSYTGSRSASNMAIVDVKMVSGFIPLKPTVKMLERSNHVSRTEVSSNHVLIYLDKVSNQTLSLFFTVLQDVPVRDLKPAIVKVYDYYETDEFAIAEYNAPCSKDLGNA
Assay: Inhibition of 125I-TGF-β1 and α2M* complex formation (5% non-denaturing PAGE, autoradiography)
Conditions: ~1 nM 125I-TGF-β1, 10 μg α2M* in 0.05 ml, 30 min room temperature, non-denaturing PAGE; read-out: IC50 for inhibiting complex formation between TGF-β1 and α2M*
Procedure: Saturated and unsaturated fatty acids are present in plasma and tissues (25,26). The effects of various concentrations of saturated fatty acids on the formation of complexes between ^125I-TGF ? β1 and ? 2M* were examined. ^125I-TGF- ? […] After 30 min at room temperature, the reaction mixture was analyzed by 5% non-denaturing PAGE and autoradiography, a standard method form determining complex formation between TGF-β and α2M* (12). […]
attribute_measured: pIC50
pIC50 is a log-scale quantity: -log10 of the concentration expressed in molar.

Here is how some molecules turned out for pIC50.
{"mol_smiles": "CCCCC/C=C\\C/C=C\\C/C=C\\CCCCC(=O)O", "observed_result": 5.10}
{"mol_smiles": "CCCCCCCC/C=C\\CCCCCCCC(=O)O", "observed_result": 5.28}
{"mol_smiles": "CCCCCCCCCCCCCC(=O)O", "observed_result": 5.04}

Alright, here's another molecule for you.
Which pIC50 value belongs to CC/C=C\C/C=C\C/C=C\CCCCCCCC(=O)O ?
4.59
